Values from patent US20100035755A1

- System: Kummerowia striata
- TEST NAME: Weed spectrum, greenhouse pot test
- Type: in vivo
- TEST CONTEXT: Pre-emergence, 12 g ai/ha, two weeks after application
We begin with a simple list: items and their reported efficacy (0-100 scale).
Returns: the value as a bare number; no unit string appended.

Look over these answered cases.
CCOC(=O)c1cnn(C)c1S(=O)(=O)NC(=O)Nc1nc(OC)cc(OC)n1 [Control chemical No. 1, Pyrazosulfuron ethyl, reference compound] ... 30
Cc1cc(C)nc(NC(=O)NS(=O)(=O)c2ccccc2C(O)C(C)F)n1 (stereo not shown) ... 70

The measured efficacy (0-100 scale) associated with COc1nc(C)nc(NC(=O)NS(=O)(=O)c2cscc2C2(CF)OCCO2)n1 reads 70

The measured efficacy (0-100 scale) associated with COc1cc(OC)nc(NC(=O)NS(=O)(=O)c2ncccc2C(F)(F)F)n1 [Control chemical No. 2, Flazasulfuron, reference compound] reads 80

* * *

We begin with a simple list: items and their reported phytotoxicity (visual assessment 0-10).
- Tested on: Bentgrass
- TEST NAME: Turf grass selectivity, greenhouse pot test
- Assay type: in vivo, Agrostris palustris
- TEST CONTEXT: 100 g ai/ha, 4 weeks
Returns: the value as a bare number; no unit string appended.

COc1nc(C)nc(NC(=O)NS(=O)(=O)c2cscc2C2(CF)OCCO2)n1 ... 10
Cc1cc(C)nc(NC(=O)NS(=O)(=O)c2ccccc2C(O)C(C)F)n1 (stereo not shown) ... 0
COc1cc(OC)nc(NC(=O)NS(=O)(=O)c2ncccc2C(F)(F)F)n1 [Control chemical No. 2, Flazasulfuron, reference compound] ... 10

Moving on to the next compound.
The measured phytotoxicity (visual assessment 0-10) associated with CCOC(=O)c1cnn(C)c1S(=O)(=O)NC(=O)Nc1nc(OC)cc(OC)n1 [Control chemical No. 1, Pyrazosulfuron ethyl, reference compound] reads 0

* * *

- Test system: Perennial rye grass
- TEST NAME: Turf grass selectivity, greenhouse pot test
- Assay type: in vivo
- TEST CONTEXT: 200 g ai/ha, 2 weeks
- Description: Turf mats of Zoysia grass, bentgrass, Kentucky bluegrass, or perennial rye grass known as cool season turfgrass or western grass were purchased and cut into a piece having 10 cm×20 cm size. Then, each piece was transplanted in a rectangular plastic pot (surface area of 300 cm^2) in which sandy loam and mixed top soil (Boo-Nong Top Soil No. 3, for horticultural use) are filled in 1:1 ratio. […]
PROPERTY NAME: phytotoxicity (visual assessment 0-10)
Returns: the value as a bare number; no unit string appended.

CCOC(=O)c1cnn(C)c1S(=O)(=O)NC(=O)Nc1nc(OC)cc(OC)n1 [Control chemical No. 1, Pyrazosulfuron ethyl, reference compound] ... 0

The measured phytotoxicity (visual assessment 0-10) associated with COc1nc(C)nc(NC(=O)NS(=O)(=O)c2cscc2C2(CF)OCCO2)n1 [Example 2] reads 10

The measured phytotoxicity (visual assessment 0-10) associated with COc1cc(OC)nc(NC(=O)NS(=O)(=O)c2ncccc2C(F)(F)F)n1 [Control chemical No. 2, Flazasulfuron, reference compound] reads 10

The measured phytotoxicity (visual assessment 0-10) associated with Cc1cc(C)nc(NC(=O)NS(=O)(=O)c2ccccc2C(O)C(C)F)n1 (stereo not shown) [Example 1] reads 0

* * *

We begin with a simple list: items and their reported efficacy (0-100 scale).
- Tested on: Poa annua
- TEST NAME: Weed spectrum, greenhouse pot test
- Assay type: in vivo
- TEST CONTEXT: Post-emergence, 12 g ai/ha, two weeks after application
Returns: the value as a bare number; no unit string appended.

Look over these answered cases.
COc1nc(C)nc(NC(=O)NS(=O)(=O)c2cscc2C2(CF)OCCO2)n1 ... 60
Cc1cc(C)nc(NC(=O)NS(=O)(=O)c2ccccc2C(O)C(C)F)n1 (stereo not shown) ... 10
CCOC(=O)c1cnn(C)c1S(=O)(=O)NC(=O)Nc1nc(OC)cc(OC)n1 [Control chemical No. 1, Pyrazosulfuron ethyl, reference compound] ... 0

The measured efficacy (0-100 scale) associated with COc1cc(OC)nc(NC(=O)NS(=O)(=O)c2ncccc2C(F)(F)F)n1 [Control chemical No. 2, Flazasulfuron, reference compound] reads 40
